# Tested on: Plasmodium berghei
# protocol-text: Screen against P. berghei liver stage (PbLuc), transformed with Luciferase, at 10uM
# Assay type: functional, HepG2
# measurement-parameters: tested at 10 uM
The whole screen tested about 69,000 compounds, of which about 8,600 (12%) showed an effect of 50% or more. For the sample, strong results were picked, then their nearest neighbours and some compounds at random.
Labels assigned by INHIBITION range: A (below 20%), B (20% to below 50%), C (50% or more)

compound	group-label
COc1ncccc1C(=O)N1CC[C@H]2C[C@@H](c3ccncn3)O[C@@H]2C1	A
C=c1ncsc1=C1NN=C(C2CCCN2C(=O)c2ccn(CC)n2)O1 (stereo unspecified)	A
CCc1ncc(CN2CCC(O)(c3ccccc3F)CC2)cn1	A
COc1cc(N2CC[C@@H]3O[C@@H](c4ccncn4)C[C@H]3C2)ncn1	C
CCC(=O)N1CCCC(C(=O)c2cnn(-c3ccc(F)cc3)c2N)C1 (stereo unspecified)	C
Cc1cc(C)n(CC2CCN(CC(O)Cn3cccn3)CC2)n1 (stereo unspecified)	A
COc1ncc(C2(O)CCN(Cc3cccc(F)c3F)CC2)c(OC)n1	B
CCc1cc(NC(C)(C)C)nc(N2CCOCC2)n1	A
O=C(OC1CCC1)c1ncccc1OCC(F)(F)F	A
CCc1cc(NCC(N)=O)nc(N2CCCCC2)n1	B
c1coc(-c2nc(CN3CCCC(Cn4cncn4)C3)cs2)c1 (stereo unspecified)	A
CSCCCN1C[C@H](NC(=O)c2ccc(CO)cc2)[C@@H](C2CC2)C1	A
Cc1oncc1C(=O)N1CC[C@H]2[C@H](C[C@@H](CN(C)C)N2CC2CC2)C1	B
COc1cccc(-c2nc(C)c(C(=O)N[C@@H](CC(C)C)C(=O)O)s2)c1	A
CN(C)CC1CN(Cc2nnc(C(C)(C)C)o2)CCO1 (stereo unspecified)	A
COc1ncc(C2(O)CCN(Cc3cc(F)cc(F)c3)CC2)c(OC)n1	B
CC(C)N1[C@H](Cn2cncn2)C[C@@H]2CN(Cc3nccn3C)CC[C@@H]21	B
Cc1cnn(CC2CCN(CC(O)COc3ccccc3)CC2)c1 (stereo unspecified)	A
Cc1cnn(CC2CCN(CC(O)Cn3cccn3)CC2)c1 (stereo unspecified)	C
COc1ncc(C2(O)CCN(Cc3cccs3)CC2)c(OC)n1	A
Cc1cccn2c(NC(C)(C)C)c(C3CCN(C(=O)C4CC4)CC3)nc12	A
NC(=O)c1ccc(C2CN(Cc3ccc(F)cc3)CCO2)nc1 (stereo unspecified)	B
COc1ncccc1C(=O)N1CC[C@H]2C[C@H](c3ccncn3)O[C@@H]2C1	C
CCn1c(CN2CCN(C(=O)C3CCC3)CC2)nc2c(F)cccc21	A
NC(=O)COc1ccc(CNCc2c(F)cccc2F)cc1	B
CNS(=O)(=O)c1cccc(C(C)NCc2ccc(C)o2)c1 (stereo unspecified)	B
CN1CCOC(CNCCOc2ccc(C#N)cc2)C1 (stereo unspecified)	C
Cc1cnn(CC2CCN(CC(O)c3ccccc3)CC2)c1 (stereo unspecified)	B
CN(C)CC1CN(CCOc2cccc(C#N)c2)CCO1 (stereo unspecified)	B
Cc1cc(C(=O)N2CC[C@@H]3CN(CCC(C)C)S(=O)(=O)[C@@H]3CC2)no1	A
Cc1cnn(CC2CCN(CC(O)c3ccccc3Cl)CC2)c1 (stereo unspecified)	C
CN1CCOC(CNCCOc2cccc(C#N)c2)C1 (stereo unspecified)	C
CCc1cc(NC2CCS(=O)(=O)C2)nc(N2CCCCC2)n1 (stereo unspecified)	C
COc1ncc(C2(O)CCN(Cc3c(F)cccc3F)CC2)c(OC)n1	C
Cc1n[nH]c(C)c1-c1cnc(CC2CCN(C(C)C)CC2)cn1	B
CC(C)NC(=O)N1CCCn2cnc(CO)c2C1	A
COc1ncc(C2(O)CCN(Cc3ccccc3O)CC2)c(OC)n1	C
Cc1cnn(CC2CCN(CC(O)CN3CCC(C)CC3)CC2)c1 (stereo unspecified)	B
COc1ncc(C2(O)CCN(Cc3ccc(F)c(F)c3)CC2)c(OC)n1	C
CNS(=O)(=O)c1cccc(C(C)NCc2cccc(C)c2C)c1 (stereo unspecified)	C
CNS(=O)(=O)c1cccc(C(C)NCc2ccco2)c1 (stereo unspecified)	C
COc1cc(N2CC[C@@H]3O[C@@H](c4ccnc(C)n4)C[C@H]3C2)ncn1	B
COCCOc1cccc(CNCC2CN(C)CCO2)c1 (stereo unspecified)	A
CCC[C@H]1CN(S(C)(=O)=O)C[C@@H]1NC(=O)Cc1ccc(OC)cc1	A

====

# Tested on: Plasmodium berghei
# protocol-text: Screen against P. berghei liver stage (PbLuc), transformed with Luciferase, at 10uM
# Assay type: functional, HepG2
# measurement-parameters: tested at 10 uM
In all, about 69,000 compounds went through this assay and about 8,600 (12%) showed an effect of 50% or more. What follows is part of a selection rich in strong results, with near analogues and random picks from the rest.
Output met for INHIBITION not less than 20%; output not met otherwise.

compound	group-label
COCCn1ccnc1-c1cc(CN2CCCCC2)cs1	not met
CCn1c(Cn2cncn2)nnc1C1CCN(Cc2ccccn2)CC1	not met
CC(C)[C@H](NS(C)(=O)=O)C(=O)NCc1cc(-c2ccco2)n[nH]1	met
COC(=O)C1CCN(C(=O)c2nnc3ccc(C)cc3n2)CC1	met
CN(Cc1noc(C2CC2)n1)C1CCN(CCc2cnn(C)c2)C1 (stereo unspecified)	not met
Cc1ccc(C(=O)N(C)Cc2cc(Br)cs2)c(=O)[nH]1	not met

====

# System: Plasmodium berghei
# protocol-text: Screen against P. berghei liver stage (PbLuc), transformed with Luciferase, at 10uM
# Type: functional, HepG2
# measurement-parameters: tested at 10 uM
In all, about 69,000 compounds went through this assay and about 8,600 (12%) showed an effect of 50% or more. This excerpt belongs to a sample that is enriched for strong results.

molecule	study-target	INHIBITION [%]
Cc1nn(C)c(=O)c2nn(-c3cccc(Cl)c3)c(C)c12	Plasmodium berghei	37.2
CNc1nc(C(=O)N2C[C@@H]3CC[C@H]2CN(C2CCOCC2)C3)cs1	Plasmodium berghei	12.8
CCC(C)N(CCOC)Cc1nc2c(cnn2C)c(=O)[nH]1 (configuration not stated)	Plasmodium berghei	14.22
CCN1CCN(C(=O)NCc2ccccc2Cn2cncn2)CC1	Plasmodium berghei	32.7
CCc1nc(CN(C)C2CCN(Cc3nnc(C4CCC4)o3)C2)no1 (configuration not stated)	Plasmodium berghei	21.5
Cc1nc(-c2nc(C(=O)NC3CC3)c3ccccn23)cn1C(C)C	Plasmodium berghei	43
CC(=O)Nc1nc(C(=O)N2CCCC(c3cc(C)[nH]n3)C2)cs1 (configuration not stated)	Plasmodium berghei	22.3
Cn1cc(CNC2CCCOc3c2ccc2ccccc32)cn1 (configuration not stated)	Plasmodium berghei	-28.7
Cc1[nH]/c(=N\C(=O)c2csc(NC3CC3)n2)sc1C	Plasmodium berghei	77.9
CC(C)NC(=O)c1csc(NC2CC2)n1	Plasmodium berghei	13.9
CN1CCCN(C(=O)NCCOc2ccc3c(c2)OCO3)CC1	Plasmodium berghei	33.3
CC(C)CCNC(=O)c1csc(NC2CC2)n1	Plasmodium berghei	-70.8

====

# System: Plasmodium berghei
# protocol-text: Screen against P. berghei liver stage (PbLuc), transformed with Luciferase, at 10uM
# Format: functional, HepG2
# measurement-parameters: tested at 10 uM
Screen size: about 69,000 compounds; about 8,600 (12%) showed an effect of 50% or more. Shown is part of a subset that was picked to be rich in strong results.
# strict inequality: INHIBITION < 50% yields 1, everything else yields 0

compound	group-label
Cc1cc(-n2cncn2)n2ncnc2n1	1
NCc1ccc(OC(F)F)cc1OC(F)F	0
CC(C)c1cnc(CN2CCCC(c3cc(C(N)=O)[nH]n3)C2)o1 (stereo not drawn)	1
COCC(=O)N1CCCC1(C)c1nc(C)cc(O)n1 (stereo not drawn)	1
CN(C)C(C)(C)CNCc1cn(C)nc1-c1cccnc1	1
O=C(N1CCCC1)N1CCn2c(Cn3cccn3)cnc2C1	1
CCCOc1ccc(CN)c(OC(F)F)c1	1
CCn1nc2c(cc1=O)CN(Cc1nc(-c3cccs3)no1)CC2	0
CC(C)c1ncc2c(n1)CN(Cc1nc(-c3cccs3)no1)CC2	0
CN(C)C(=O)N1CCn2c(Cn3cccn3)cnc2C1	0
CCn1c(C)nnc1SCCNc1nc(C)nc2c1cnn2C	1
CCn1c(C)nnc1SCCNc1nc(C)ncc1S(C)(=O)=O	1

====

# Tested on: Plasmodium berghei
# protocol-text: Screen against P. berghei liver stage (PbLuc), transformed with Luciferase, at 10uM
# Format: functional, HepG2
# measurement-parameters: tested at 10 uM
The whole screen tested about 69,000 compounds, of which about 8,600 (12%) showed an effect of 50% or more. Only a selection was taken, and strong results are over-represented in it overall.
# strict inequality: INHIBITION < 30% yields YES, everything else yields NO

compound	group-label
Cc1nc2cc(O)nn2c(C)c1CCC(=O)N(C)Cc1cscn1	YES
Cn1ccnc1CNC(=O)CC1CCCCO1 (stereo not drawn)	YES
COCC(=O)N1CCN(c2ccc(C(=O)OC)cc2)CC1C (stereo not drawn)	YES
NC(=O)CCN1CCC(C(=O)c2cc(F)ccc2F)CC1	YES
COc1cccc(CC2CCCN2CC(N)=O)c1 (stereo not drawn)	NO
COc1ccc(CC2CCCN2CCCC#N)cc1 (stereo not drawn)	NO
O=C(Cc1ccc2c(c1)CCCC2)Nc1cccnc1N1CCSCC1	NO
O=C1NCCc2c1sc1ccc(C(=O)N3CC[C@H](CO)[C@H](O)C3)cc21	YES
COCCN1C(=O)CCC12CCN(c1ncc(F)cn1)CC2	YES
N#CCCCN1CCCC1Cc1ccccc1 (stereo not drawn)	NO
COc1cccc(CC2CCCN2CCCC#N)c1 (stereo not drawn)	NO
COC(=O)c1ccc(N2CCN(C(=O)c3cc(C)no3)C(C)C2)cc1 (stereo not drawn)	YES
Cc1cnccc1CN(C)C(=O)C(C)(C)NC(=O)c1cccs1	NO
CCOCCN1CCC(C(=O)c2cc(F)ccc2F)CC1	NO
CN(C)[C@H]1CN(C(=O)c2ccc3sc4c(c3c2)CCNC4=O)C[C@@H]1O	YES
OCC1(Cc2ccccc2F)CCCN(c2ccc3ccccc3n2)C1 (stereo not drawn)	NO
O=C(NCC1CCCCC1)N1C[C@@H]2C[C@H](C(=O)N3CCCC3)[C@H](C1)O2	NO
COC(=O)c1ccc(N2CCN(C(=O)c3cnc(C)cn3)C(C)C2)cc1 (stereo not drawn)	NO
O=C(Cc1ccc2c(c1)CCCC2)NCCNc1cnccn1	NO
Nc1ccnc(N2CCCC(CO)(Cc3cccc(Cl)c3)C2)n1 (stereo not drawn)	NO
O=C(c1ccc(-c2cnco2)cc1)N1CCC(Nc2cccnn2)CC1	YES
O=C(Cc1ccc2c(c1)CCC2)NCCNc1ncccn1	NO
O=C(N1CCOCC1)[C@@]12CCO[C@@H]1CCN(C1CCC1)C2	YES
Cc1noc(C)c1C(C)C(=O)N1CCCN(Cc2cscn2)CC1 (stereo not drawn)	YES
CC(C)NC(=O)CCN1CCC(C(=O)c2cc(F)ccc2F)CC1	NO
CN(C)C1CCCN(C(=O)c2ccc3sc4c(c3c2)CCNC4=O)CC1 (stereo not drawn)	NO
CN(Cc1cccc(F)c1)C(=O)CN1CCCC1CCc1ccccc1 (stereo not drawn)	YES
COC(=O)CCN1CCC(C(=O)c2cc(F)ccc2F)CC1	NO
O=C(Cc1ccc2c(c1)CCCC2)NCCc1ccccn1	NO
Cc1noc([C@H]2C[C@H]3CN(C(=O)Cc4ccsc4)CC[C@H]3O2)n1	YES
N#CCCN(C(=O)CN1CCCC1Cc1ccccc1)c1ccccc1 (stereo not drawn)	NO
COC[C@]1(O)CCN(c2cc(OC)ncn2)CC1(C)C	YES
Cc1cc(C)c(CNC(=O)NCC2COCCO2)c(=O)[nH]1 (stereo not drawn)	YES
CCCN(CCC)CCNc1c(-c2ccccc2)c(=O)c1=O	NO
O=C(O)C1(Cc2ccccc2F)CCCN(c2ncnc3[nH]ccc23)C1 (stereo not drawn)	YES
CCOC(=O)CN1CCC(C(=O)c2cc(F)ccc2F)CC1	NO
Fc1cccc(-c2nc(CN3CCCC(Cn4cncn4)C3)co2)c1 (stereo not drawn)	YES
CN(CC(=O)Nc1cc(C(C)(C)C)n[nH]1)S(C)(=O)=O	YES
COc1ccc(S(=O)(=O)NC(=O)COC2CCCCC2)cc1	YES
CCN(C(=O)CN1CCCC1Cc1ccccc1)c1ccccc1 (stereo not drawn)	NO
Nc1cc(N2CCCC(CO)(Cc3ccccc3F)C2)nc(N)n1 (stereo not drawn)	NO
O=C(O)CCn1ccc2cc(Br)ccc21	YES
N#Cc1cccc(N2CCCC(CO)(Cc3ccccc3F)C2)n1 (stereo not drawn)	YES
NC(=O)NC(=O)CCN1CCC(C(=O)c2cc(F)ccc2F)CC1	NO
CCOc1ncccc1C(=O)NC1CCCN(c2ncccn2)C1 (stereo not drawn)	YES
COCCN1CCC(C(=O)c2cc(F)ccc2F)CC1	YES
N#Cc1cccc(CN2C[C@H](OCC3CCOCC3)[C@H]3COC[C@H]32)c1	YES
Nc1cc(N2CCCC(Cc3ccc(F)cc3F)(C(=O)O)C2)ncn1 (stereo not drawn)	NO
